Entries and their IC50 values follow.
Target sequence: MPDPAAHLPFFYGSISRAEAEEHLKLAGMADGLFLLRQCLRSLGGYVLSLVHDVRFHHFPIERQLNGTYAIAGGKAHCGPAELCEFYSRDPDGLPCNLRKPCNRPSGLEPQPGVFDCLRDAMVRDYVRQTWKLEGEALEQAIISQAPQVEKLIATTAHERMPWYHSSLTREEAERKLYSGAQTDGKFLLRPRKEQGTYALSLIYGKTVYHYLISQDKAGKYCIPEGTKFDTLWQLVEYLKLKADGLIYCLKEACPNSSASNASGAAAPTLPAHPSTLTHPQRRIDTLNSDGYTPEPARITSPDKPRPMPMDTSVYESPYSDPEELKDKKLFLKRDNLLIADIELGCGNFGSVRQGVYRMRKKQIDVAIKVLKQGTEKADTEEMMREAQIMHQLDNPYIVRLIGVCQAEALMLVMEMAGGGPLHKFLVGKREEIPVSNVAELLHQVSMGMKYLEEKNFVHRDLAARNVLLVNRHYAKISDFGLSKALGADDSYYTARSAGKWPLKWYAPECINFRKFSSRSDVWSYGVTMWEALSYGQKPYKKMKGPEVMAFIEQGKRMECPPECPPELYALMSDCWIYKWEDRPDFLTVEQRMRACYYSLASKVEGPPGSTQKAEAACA

COc1cc(-c2cc3nccc(Nc4ccc5cn[nH]c5c4)c3o2)cc(OC)c1OC
3 to 50 µM

Q) Entry COc1cc(-c2cc3nccc(-c4cc[nH]n4)c3o2)cc(OC)c1OC has what IC50?
A) 0.3 to 3 µM

Q) Entry COc1cc(-c2cc3nccc(-c4cccc(N)c4)c3o2)cc(OC)c1OC has what IC50?
A) 0.3 to 3 µM

Q) Entry COc1cc(-c2cc3nccc(-c4ccc(C(=O)O)cc4)c3o2)cc(OC)c1OC has what IC50?
A) 0.3 to 3 µM

Q) Entry COc1cc(-c2cc3nccc(-c4cccc(C(=O)NC5CCCCC5N)c4)c3o2)cc(OC)c1OC (centres unmarked) has what IC50?
A) 3 to 50 µM

Q) Entry COc1cc(-c2cc3nccc(-c4c[nH]c5ccccc45)c3o2)cc(OC)c1OC has what IC50?
A) 3 to 50 µM

Q) Entry COc1cc(-c2cc3nccc(-c4cnn(Cc5ccccc5)c4)c3o2)cc(OC)c1OC has what IC50?
A) < 0.3 µM

Q) Entry COc1cc(-c2cc3nccc(-c4ccc5[nH]nnc5c4)c3o2)cc(OC)c1OC has what IC50?
A) 0.3 to 3 µM
